- System Tested: T1, ADF peptide complexed with HLA-A*02:01 on T2 cells (human)
- T1 construct: whole, on cells
- Assay: flow cytometry, peptide-loaded T2 cells;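 also: binding of single-chain Fv antibody constructs, raised in XenoMouse, to peptide-pulsed T2 cells measured by flow cytometry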
Readout Label: Signal/background
Answers are plain numbers.

18179-G12 (scFv, scFv in bacterial lysate, detected with anti-Flag M2) scFv: EVQLLESGAEVKKPGASVKVSCKASGYTFTRNGLSWVRQAPGQGLEWMGWISGYNGDTNYAQKLQGRGTMTTDTSTSTAYMELRSLRSDDTAVYYCARGRATFDYWGQGTLVTVSSGGGGSGGGGSGGGGSELVMTQSPSSLSASVGDRVTITCRASQGISNYLAWYQQKPGKVPKLLISAASTLQSGVPSRFSGSGSGTDFTLTISSLQPEDVATYYCQKYNSAPFTFGPGTKLEIK : 1.1

Here is another binder to look at.
Ask: Give its Signal/background value. Item: 18181-B8 (scFv, scFv in bacterial lysate, detected with anti-Flag M2) scFv: EVQLLESGPGLVKPSQTLSLTCTVSGGSISSGGYYWSWIRQHPGKGLEWIGYISHSGSTYYNPSLKSRVTISVDTSKNQFSLNLTSVTAADTAVYYCAREKMWFGVLNYYYGMDVWGQGTTVTVSSGGGGSGGGGSGGGGSELVMTQTPLSLPVTPGEPASISCRSSQSLLHRNGYNYLDWYLQKPGQSPQLLIYLGSNRASGVPDRFIGSGSGTDFTLEISRVEAEDVGVYYCMQALQTPSFGQGTKVEIK
Reply: 1
